Test system: RPMI-8226 leukemia
Assay: NCI-60 one-dose screen, 48 h (100 = growth as untreated, 0 = no growth, -100 = all killed)
Conditions: 10 µM unless noted
Procedure: Growth inhibition of the RPMI-8226 human tumor cell line is measured as a screen for anti-cancer activity. Cells are grown in 96 well plates and exposed to the test compound for 48 hours. Compounds are tested at a single concentration, which is 10^-5 M for most compounds. The reported endpoint is percent growth (GI% or GIPRCNT), where numbers from 0 - 100% represent growth inhibition, and numbers from -100% - 0 represent cell death. For example, a value of 40 represents 60% growth inhibition. […]
About 83,000 compounds went through this panel and 20% of them were active in at least one assay; those are over-represented in the sample as a whole.
# note: exactly 70% is not below, so it is criterion not met; use criterion met for growth strictly under it

Example cases with answers are listed next.
> print(dat)
                                   compound   class.assignment
1  Cc1ccc(-n2cc(/C=N/NC(=O)c3nc(N)n[nH]3)c(-c3ccc(S(C)(=O)=O)cc3)n2)cc1  criterion not met
2  CC(C)(C)c1ccc(-c2nnc(-c3nc4ccccc4nc3Cl)o2)cc1      criterion met
3  Cn1ccnc1C(=O)/C=C/c1ccc(CNC(=O)c2ccc(S(F)(F)(F)(F)F)cc2)cc1      criterion met
4  CCCn1cnc2c(c1=N)C(c1ccc(Cl)cc1)c1sc3c(CC)cccc3c1O2 (stereo not given)      criterion met

Please look at the following compound next.
Asked: Lab note: growth threshold 70%. Does this compound come in strictly under it? CCc1cccc(NC(=O)CNc2cc(S(=O)(=O)N(C)C)cc(C)c2C)c1
Given back: criterion met
